# TESTED_ON: UniProt:P08170
# ASSAY_COMMENT: In vitro 15-LOX inhibitory assay
# Type: biochemical
ENDPOINT_LABEL: IC50 (µM)
Give bare numbers, in µM.

Would you please look over these solved cases?
COMPOUND | IC50 (µM)
O=C(CSC1=N/C(=C\c2ccc(Cl)cc2)C(=O)N1c1ccccc1)Nc1ccc(F)cc1 [Compound 4k] | 2.17
O=C(CSC1=N/C(=C\c2ccc(Cl)cc2)C(=O)N1c1ccccc1)NCc1ccccc1 [Compound 4r] | 2.47
O=C(CSC1=N/C(=C\c2ccccc2)C(=O)N1c1ccccc1)Nc1cccc(C(F)(F)F)c1 [Compound 4h] | 5.71
O=C(CSC1=N/C(=C\c2ccc(Cl)cc2)C(=O)N1c1ccccc1)Nc1cccc(C(F)(F)F)c1 [Compound 4q] | 3.99
Cc1ccc(NC(=O)CSC2=N/C(=C\c3ccc(Cl)cc3)C(=O)N2c2ccccc2)cc1 [Compound 4n] | 3.13
O=C(CSC1=N/C(=C\c2ccc(Cl)cc2)C(=O)N1c1ccccc1)Nc1ccccc1 [Compound 4j] | 4.75
COc1cc(NC(=O)CSC2=N/C(=C\c3ccc(Cl)cc3)C(=O)N2c2ccccc2)cc(OC)c1OC [Compound 4p] | 2.69
COc1ccc(NC(=O)CSC2=N/C(=C\c3ccc(Cl)cc3)C(=O)N2c2ccccc2)cc1 [Compound 4o] | 3.24

Complete the entry with IC50 for O=C(CSC1=N/C(=C\c2ccc(Cl)cc2)C(=O)N1c1ccccc1)Nc1ccc(Br)cc1 [Compound 4m]
4.21

---

# TESTED_ON: ovine COX-1 (Ovis aries)
# ASSAY_COMMENT: In vitro COX-1 inhibitory assay
# Type: biochemical
ENDPOINT_LABEL: IC50

CHEMICAL_STRING | TESTED_ON | ENDPOINT_LABEL | EXPERIMENTAL_VALUE
COc1cc(NC(=O)CSC2=N/C(=C\c3ccc(Cl)cc3)C(=O)N2c2ccccc2)cc(OC)c1OC | ovine COX-1 (Ovis aries) | IC50 | 12.8 µM

Quick request: IC50 for each listed item, please.
1. O=C(CSC1=N/C(=C\c2ccc(Cl)cc2)C(=O)N1c1ccccc1)Nc1ccc(Cl)cc1
2. O=C(CSC1=N/C(=C\c2ccc(Cl)cc2)C(=O)N1c1ccccc1)NCc1ccccc1
3. COc1ccc(NC(=O)CSC2=N/C(=C\c3ccccc3)C(=O)N2c2ccccc2)cc1

12.3 µM
10.1 µM
11 µM

---

# TESTED_ON: human recombinant COX-2 (Homo sapiens, UniProt P35354)
# Sequence (P35354 18-604): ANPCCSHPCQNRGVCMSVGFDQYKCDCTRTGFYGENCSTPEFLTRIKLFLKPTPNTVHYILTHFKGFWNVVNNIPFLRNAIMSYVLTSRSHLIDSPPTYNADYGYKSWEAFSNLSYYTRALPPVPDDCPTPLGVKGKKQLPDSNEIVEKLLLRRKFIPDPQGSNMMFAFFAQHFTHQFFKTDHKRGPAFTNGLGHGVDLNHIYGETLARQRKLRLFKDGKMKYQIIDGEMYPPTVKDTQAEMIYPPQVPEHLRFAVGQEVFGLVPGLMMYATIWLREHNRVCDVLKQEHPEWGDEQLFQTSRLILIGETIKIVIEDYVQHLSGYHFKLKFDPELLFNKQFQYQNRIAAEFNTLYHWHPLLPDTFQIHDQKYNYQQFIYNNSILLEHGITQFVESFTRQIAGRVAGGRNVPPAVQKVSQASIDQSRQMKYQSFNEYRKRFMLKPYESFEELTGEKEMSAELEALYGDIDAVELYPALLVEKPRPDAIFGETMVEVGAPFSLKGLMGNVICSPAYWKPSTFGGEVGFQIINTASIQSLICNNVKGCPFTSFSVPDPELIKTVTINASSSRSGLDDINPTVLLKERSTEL
# ASSAY_COMMENT: In vitro COX-2 inhibitory assay
# Type: biochemical
# ASSAY_CONTEXT: compared with unsubstituted compounds 4b, 4c, 4g, 4h respectively
ENDPOINT_LABEL: Enhancement of anti-COX-2 activity by p-Cl on benzylidine (folds)
Give bare numbers, in folds.

COMPOUND | UOM | EXPERIMENTAL_VALUE
O=C(CSC1=N/C(=C\c2ccc(Cl)cc2)C(=O)N1c1ccccc1)Nc1ccc(Cl)cc1 [Compound 4l] | folds | 1.75
COc1cc(NC(=O)CSC2=N/C(=C\c3ccc(Cl)cc3)C(=O)N2c2ccccc2)cc(OC)c1OC [Compound 4p] | folds | 1.75
O=C(CSC1=N/C(=C\c2ccc(Cl)cc2)C(=O)N1c1ccccc1)Nc1ccc(F)cc1 [Compound 4k] | folds | 1.85

Complete the entry with Enhancement of anti-COX-2 activity by p-Cl on benzylidine for O=C(CSC1=N/C(=C\c2ccc(Cl)cc2)C(=O)N1c1ccccc1)Nc1cccc(C(F)(F)F)c1 [Compound 4q]
3.1

---

# TESTED_ON: ovine COX-1 (Ovis aries, UniProt P05979)
# Sequence (P05979 25-600): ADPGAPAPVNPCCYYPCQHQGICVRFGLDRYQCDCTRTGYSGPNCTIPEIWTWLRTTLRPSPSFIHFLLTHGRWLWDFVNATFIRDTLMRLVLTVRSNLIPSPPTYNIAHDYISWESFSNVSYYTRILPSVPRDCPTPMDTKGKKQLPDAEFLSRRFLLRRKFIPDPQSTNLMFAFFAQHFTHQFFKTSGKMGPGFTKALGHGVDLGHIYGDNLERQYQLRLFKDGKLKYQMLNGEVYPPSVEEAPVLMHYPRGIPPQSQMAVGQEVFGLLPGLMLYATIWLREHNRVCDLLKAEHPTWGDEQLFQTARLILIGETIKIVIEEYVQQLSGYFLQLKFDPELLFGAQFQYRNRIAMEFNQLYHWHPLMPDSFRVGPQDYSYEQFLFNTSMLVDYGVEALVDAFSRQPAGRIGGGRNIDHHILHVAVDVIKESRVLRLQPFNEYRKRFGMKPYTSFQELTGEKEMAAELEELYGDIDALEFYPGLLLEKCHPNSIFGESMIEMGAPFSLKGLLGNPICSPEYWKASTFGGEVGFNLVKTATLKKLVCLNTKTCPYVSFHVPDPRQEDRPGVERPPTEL
# ASSAY_COMMENT: In vitro COX-1 inhibitory assay
# Type: biochemical
ENDPOINT_LABEL: pIC50
Answers are plain numbers, as −log10 of the molar value.

Would you please look over these solved cases?
CHEMICAL_STRING | pIC50
O=C(CSC1=N/C(=C\c2ccccc2)C(=O)N1c1ccccc1)NCc1ccccc1 | 4.98
O=C(CSC1=N/C(=C\c2ccccc2)C(=O)N1c1ccccc1)Nc1ccccc1 | 5.11
O=C(CSC1=N/C(=C\c2ccccc2)C(=O)N1c1ccccc1)Nc1cccc(C(F)(F)F)c1 | 4.96
O=C(CSC1=N/C(=C\c2ccc(Cl)cc2)C(=O)N1c1ccccc1)Nc1ccc(F)cc1 | 4.88

Quick request: pIC50 for each listed item, please.
1. O=C(CSC1=N/C(=C\c2ccc(Cl)cc2)C(=O)N1c1ccccc1)Nc1cccc(C(F)(F)F)c1
2. O=C(CSC1=N/C(=C\c2ccc(Cl)cc2)C(=O)N1c1ccccc1)Nc1ccccc1
3. COc1ccc(NC(=O)CSC2=N/C(=C\c3ccc(Cl)cc3)C(=O)N2c2ccccc2)cc1
4. Cc1ccc(NC(=O)CSC2=N/C(=C\c3ccc(Cl)cc3)C(=O)N2c2ccccc2)cc1
5. O=C(CSC1=N/C(=C\c2ccc(Cl)cc2)C(=O)N1c1ccccc1)Nc1ccc(Br)cc1

[4.99, 4.92, 4.96, 5.02, 5.10]

---

Kindly supply the reported IC50 values for the records listed here.
# TESTED_ON: soybean 15-LOX (Glycine max, UniProt P08170)
# ASSAY_COMMENT: In vitro 15-LOX inhibitory assay
# Format: biochemical
# ASSAY_CONTEXT: read-out: 15-LOX IC50; soybean 15-LOX
Answers are plain numbers, in µM.

CHEMICAL_STRING | UOM | IC50
O=C(CSC1=N/C(=C\c2ccccc2)C(=O)N1c1ccccc1)Nc1ccc(Br)cc1 | µM | 5.14

Quick request: IC50 for each listed item, please.
1. O=C(CSC1=N/C(=C\c2ccccc2)C(=O)N1c1ccccc1)Nc1ccc(F)cc1
2. COc1cc(NC(=O)CSC2=N/C(=C\c3ccccc3)C(=O)N2c2ccccc2)cc(OC)c1OC
3. Cc1ccc(NC(=O)CSC2=N/C(=C\c3ccccc3)C(=O)N2c2ccccc2)cc1
4. O=C(CSC1=N/C(=C\c2ccccc2)C(=O)N1c1ccccc1)Nc1ccc(Cl)cc1

1. 3.13
2. 2.82
3. 5.14
4. 3.24

---

Kindly supply the reported TNF-α level values for the records listed here.
# System: LPS-induced TNF-α production in RAW 264.7 cells
# ASSAY_CONTEXT: cells treated with 25 μM compound, LPS-activated RAW 264.7
Give bare numbers, in pg/mL.

Would you please look over these solved cases?
MOLECULE | UOM | TNF-α level
Cc1ccc(-c2cc(C(F)(F)F)nn2-c2ccc(S(N)(=O)=O)cc2)cc1 [Celecoxib, celecoxib, reference compound] | pg/mL | 25.36
Cc1ccc(NC(=O)CSC2=N/C(=C\c3ccccc3)C(=O)N2c2ccccc2)cc1 [Compound 4e] | pg/mL | 58.19

Quick request: TNF-α level for each listed item, please.
1. O=C(CSC1=N/C(=C\c2ccccc2)C(=O)N1c1ccccc1)Nc1cccc(C(F)(F)F)c1 [Compound 4h]
2. O=C(CSC1=N/C(=C\c2ccccc2)C(=O)N1c1ccccc1)Nc1ccc(F)cc1 [Compound 4b]

1. 24.15
2. 51.63

---

# TESTED_ON: human recombinant COX-2 (Homo sapiens)
# ASSAY_COMMENT: In vitro COX-2 inhibitory assay
# Assay type: biochemical
ENDPOINT_LABEL: SI (Selectivity index = COX-1 IC50/COX-2 IC50)

Would you please look over these solved cases?
MOLECULE | EXPERIMENTAL_VALUE
O=C(CSC1=N/C(=C\c2ccccc2)C(=O)N1c1ccccc1)Nc1ccc(Br)cc1 [Compound 4d] | 64.13
O=C(CSC1=N/C(=C\c2ccccc2)C(=O)N1c1ccccc1)Nc1ccc(Cl)cc1 [Compound 4c] | 64.62

Quick request: SI (Selectivity index = COX-1 IC50/COX-2 IC50) for each listed item, please.
1. COc1cc(NC(=O)CSC2=N/C(=C\c3ccccc3)C(=O)N2c2ccccc2)cc(OC)c1OC [Compound 4g]
2. Cc1ccc(NC(=O)CSC2=N/C(=C\c3ccccc3)C(=O)N2c2ccccc2)cc1 [Compound 4e]
3. O=C(CSC1=N/C(=C\c2ccccc2)C(=O)N1c1ccccc1)Nc1ccc(F)cc1 [Compound 4b]

[68.07, 90.85, 99.06]

---

# TESTED_ON: soybean 15-LOX (Glycine max)
# Sequence (P08170 1-839): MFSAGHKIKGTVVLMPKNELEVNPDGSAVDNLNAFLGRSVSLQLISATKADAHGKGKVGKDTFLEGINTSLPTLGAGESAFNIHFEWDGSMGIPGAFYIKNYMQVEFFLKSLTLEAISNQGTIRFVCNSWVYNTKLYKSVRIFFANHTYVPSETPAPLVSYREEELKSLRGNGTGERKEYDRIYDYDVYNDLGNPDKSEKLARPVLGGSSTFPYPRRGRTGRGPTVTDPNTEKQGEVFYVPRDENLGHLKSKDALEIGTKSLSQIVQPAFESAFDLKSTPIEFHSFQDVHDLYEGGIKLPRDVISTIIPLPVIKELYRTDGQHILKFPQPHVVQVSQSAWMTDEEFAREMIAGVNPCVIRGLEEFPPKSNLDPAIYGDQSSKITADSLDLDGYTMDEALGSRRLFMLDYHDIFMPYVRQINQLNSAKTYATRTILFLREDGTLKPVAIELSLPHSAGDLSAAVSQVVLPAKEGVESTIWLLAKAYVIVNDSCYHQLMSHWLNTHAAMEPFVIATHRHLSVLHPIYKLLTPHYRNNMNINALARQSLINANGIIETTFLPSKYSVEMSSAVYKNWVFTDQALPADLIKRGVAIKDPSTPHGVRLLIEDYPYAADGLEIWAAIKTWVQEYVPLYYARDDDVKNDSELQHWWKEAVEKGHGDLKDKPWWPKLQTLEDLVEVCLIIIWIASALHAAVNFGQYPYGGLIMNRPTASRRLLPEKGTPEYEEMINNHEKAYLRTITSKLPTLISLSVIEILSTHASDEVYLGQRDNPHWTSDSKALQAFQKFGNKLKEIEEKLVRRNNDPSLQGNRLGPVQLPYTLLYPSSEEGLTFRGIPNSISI
# ASSAY_COMMENT: In vitro 15-LOX inhibitory assay
# Type: biochemical
ENDPOINT_LABEL: pIC50
Numbers only, as −log10 of the molar value.

Would you please look over these solved cases?
CHEMICAL_STRING | TESTED_ON | ENDPOINT_LABEL | EXPERIMENTAL_VALUE
O=C(CSC1=N/C(=C\c2ccccc2)C(=O)N1c1ccccc1)NCc1ccccc1 | soybean 15-LOX (Glycine max) | pIC50 | 5.55
O=C(CSC1=N/C(=C\c2ccccc2)C(=O)N1c1ccccc1)Nc1ccccc1 | soybean 15-LOX (Glycine max) | pIC50 | 5.24
COc1ccc(NC(=O)CSC2=N/C(=C\c3ccccc3)C(=O)N2c2ccccc2)cc1 | soybean 15-LOX (Glycine max) | pIC50 | 5.40

Complete the entry with pIC50 for O=C(CSC1=N/C(=C\c2ccc(Cl)cc2)C(=O)N1c1ccccc1)Nc1ccc(Cl)cc1
5.57
